Test system: SW1271 complex spheroids with HUVEC/MSC, growth, % test/control
Experiment: Anticancer human tumor SW1271 cell line growth inhibition [AhR];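 note: spheroids exposed to agents for 7 days before readout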
Conditions: second compound 0.316 µM; first compound 3 µM; stronger effect = lower value
Listing of entries alongside the reported viability, T/C.
Respond numerically; units are % and should not be typed.

CCN(c1cc(-c2ccc(CN3CCOCC3)cc2)cc(C(=O)NCc2c(C)cc(C)[nH]c2=O)c1C)C1CCOCC1 + CC(CO)NC(=O)c1cc(-c2ccc(Cl)cc2)nn(-c2cnn(C)c2)c1=O = 112
O=C(C=Cn1cnc(-c2cc(C(F)(F)F)cc(C(F)(F)F)c2)n1)NNc1cnccn1 + CC(CO)NC(=O)c1cc(-c2ccc(Cl)cc2)nn(-c2cnn(C)c2)c1=O = 31.7
CCN(c1cc(-c2ccc(CN3CCOCC3)cc2)cc(C(=O)NCc2c(C)cc(C)[nH]c2=O)c1C)C1CCOCC1 + Cc1cncc(-c2nc(NCCc3c[nH]c4ccccc34)c3ncn(C(C)C)c3n2)c1 = 115

Record for O=C(C=Cn1cnc(-c2cc(C(F)(F)F)cc(C(F)(F)F)c2)n1)NNc1cnccn1 + Cc1cncc(-c2nc(NCCc3c[nH]c4ccccc34)c3ncn(C(C)C)c3n2)c1 under target or system SW1271 complex spheroids with HUVEC/MSC, growth, % test/control: viability, T/C reported as 45.6

Record for CCN(c1cc(-c2ccc(CN3CCOCC3)cc2)cc(C(=O)NCc2c(C)cc(C)[nH]c2=O)c1C)C1CCOCC1 + Cc1ccccc1N=Nc1ccc(NC(=O)c2ccnn2C)c(C)c1 under target or system SW1271 complex spheroids with HUVEC/MSC, growth, % test/control: viability, T/C reported as 107

Record for O=C(C=Cn1cnc(-c2cc(C(F)(F)F)cc(C(F)(F)F)c2)n1)NNc1cnccn1 + Cc1ccccc1N=Nc1ccc(NC(=O)c2ccnn2C)c(C)c1 under target or system SW1271 complex spheroids with HUVEC/MSC, growth, % test/control: viability, T/C reported as 42.8

----------
System: SW1271 complex spheroids with HUVEC/MSC, growth, % test/control
Assay: Anticancer human tumor SW1271 cell line growth inhibition [AhR];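 note: spheroids exposed to agents for 7 days before readout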
Details: curve of first compound; second compound 10 µM
result type: IC50

Looking up NS(=O)(=O)OCC1CC(n2ccc3c(NC4CCc5ccccc54)ncnc32)CC1O (stereo unspecified) + CC(CO)NC(=O)c1cc(-c2ccc(Cl)cc2)nn(-c2cnn(C)c2)c1=O , I found its IC50 recorded as > 10000 nM

Looking up COc1cccc2c1C(=O)c1c(O)c3c(c(O)c1C2=O)CC(O)(C(=O)CO)CC3OC1CC(N)C(O)C(C)O1 (stereo unspecified) + Cc1cncc(-c2nc(NCCc3c[nH]c4ccccc34)c3ncn(C(C)C)c3n2)c1 , I found its IC50 recorded as < 31.6 nM

Looking up O=C(C=Cc1cccc(S(=O)(=O)Nc2ccccc2)c1)NO + CC(CO)NC(=O)c1cc(-c2ccc(Cl)cc2)nn(-c2cnn(C)c2)c1=O , I found its IC50 recorded as 793 nM

Looking up CC(C)c1c(-c2ccccc2)nc2c(C#N)c[nH]n2c1=O + CC(CO)NC(=O)c1cc(-c2ccc(Cl)cc2)nn(-c2cnn(C)c2)c1=O , I found its IC50 recorded as > 10000 nM

Looking up CCc1c2c(nc3ccc(O)cc13)-c1cc3c(c(=O)n1C2)COC(=O)[C@]3(O)CC + CC(CO)NC(=O)c1cc(-c2ccc(Cl)cc2)nn(-c2cnn(C)c2)c1=O , I found its IC50 recorded as > 300 nM

Looking up CC(C)CC(NC(=O)C(Cc1ccccc1)NC(=O)c1cnccn1)B(O)O (stereo unspecified) + Cc1ccccc1N=Nc1ccc(NC(=O)c2ccnn2C)c(C)c1 , I found its IC50 recorded as 6.76 nM

----------
System: SW1271 complex spheroids with HUVEC/MSC, growth, % test/control
Experiment: Anticancer human tumor SW1271 cell line growth inhibition [AhR]; active = viability on the fitted dose curve at most 10% of control; inactive = the rest;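 note: spheroids exposed to agents for 7 days before readout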
Settings: second compound 10 µM; first compound 0.0949 µM
Answer with one of the outcomes 1.0 = active, 0.0 = inactive

Completed entries (count: 4):
Nc1ncn(C2CC(O)C(CO)S2)c(=O)n1 (stereo not given) + CC(CO)NC(=O)c1cc(-c2ccc(Cl)cc2)nn(-c2cnn(C)c2)c1=O = 0.0
O=C(C=Cn1cnc(-c2cc(C(F)(F)F)cc(C(F)(F)F)c2)n1)NNc1cnccn1 + CC(CO)NC(=O)c1cc(-c2ccc(Cl)cc2)nn(-c2cnn(C)c2)c1=O = 0.0
CC(C)CC(NC(=O)C(Cc1ccccc1)NC(=O)c1cnccn1)B(O)O (stereo not given) + CC(CO)NC(=O)c1cc(-c2ccc(Cl)cc2)nn(-c2cnn(C)c2)c1=O = 1.0
CCN(c1cc(-c2ccc(CN3CCOCC3)cc2)cc(C(=O)NCc2c(C)cc(C)[nH]c2=O)c1C)C1CCOCC1 + Cc1ccccc1N=Nc1ccc(NC(=O)c2ccnn2C)c(C)c1 = 0.0

Proceed to the following item.
Q. Per the assay record, what outcome was assigned to CCN(c1cc(-c2ccc(CN3CCOCC3)cc2)cc(C(=O)NCc2c(C)cc(C)[nH]c2=O)c1C)C1CCOCC1 + CC(CO)NC(=O)c1cc(-c2ccc(Cl)cc2)nn(-c2cnn(C)c2)c1=O ?
A. 0.0

----------
Listing of entries alongside the reported viability, T/C.
System: SW1271 complex spheroids with HUVEC/MSC, growth, % test/control
Experiment: Anticancer human tumor SW1271 cell line growth inhibition [AhR];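 note: spheroids exposed to agents for 7 days before readout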
Settings: second compound 0.316 µM; first compound 0.0949 µM; stronger effect = lower value
Respond numerically; units are % and should not be typed.

O=C(C=Cn1cnc(-c2cc(C(F)(F)F)cc(C(F)(F)F)c2)n1)NNc1cnccn1 + Cc1ccccc1N=Nc1ccc(NC(=O)c2ccnn2C)c(C)c1 = 84
Nc1ncn(C2CC(O)C(CO)S2)c(=O)n1 (stereo not drawn) + Cc1cncc(-c2nc(NCCc3c[nH]c4ccccc34)c3ncn(C(C)C)c3n2)c1 = 101

Now let's try a different one.
Looking up CC(C)CC(NC(=O)C(Cc1ccccc1)NC(=O)c1cnccn1)B(O)O (stereo not drawn) + Cc1cncc(-c2nc(NCCc3c[nH]c4ccccc34)c3ncn(C(C)C)c3n2)c1 , I found its viability, T/C recorded as 0.67

----------
Listing of entries alongside the reported viability, T/C.
Test system: SW1271 complex spheroids with HUVEC/MSC, growth, % test/control
Assay: Anticancer human tumor SW1271 cell line growth inhibition [AhR];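 note: spheroids exposed to agents for 7 days before readout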
Conditions: second compound 3.16 µM; first compound 0.3 µM; stronger effect = lower value
Respond numerically; units are % and should not be typed.

CC(C)CC(NC(=O)C(Cc1ccccc1)NC(=O)c1cnccn1)B(O)O (stereo unspecified) + Cc1cncc(-c2nc(NCCc3c[nH]c4ccccc34)c3ncn(C(C)C)c3n2)c1 = 0.55
Nc1ncn(C2CC(O)C(CO)S2)c(=O)n1 (stereo unspecified) + Cc1cncc(-c2nc(NCCc3c[nH]c4ccccc34)c3ncn(C(C)C)c3n2)c1 = 78.4
CC(C)CC(NC(=O)C(Cc1ccccc1)NC(=O)c1cnccn1)B(O)O (stereo unspecified) + Cc1ccccc1N=Nc1ccc(NC(=O)c2ccnn2C)c(C)c1 = 0.68
CCN(c1cc(-c2ccc(CN3CCOCC3)cc2)cc(C(=O)NCc2c(C)cc(C)[nH]c2=O)c1C)C1CCOCC1 + Cc1cncc(-c2nc(NCCc3c[nH]c4ccccc34)c3ncn(C(C)C)c3n2)c1 = 87.9
O=C(C=Cn1cnc(-c2cc(C(F)(F)F)cc(C(F)(F)F)c2)n1)NNc1cnccn1 + Cc1cncc(-c2nc(NCCc3c[nH]c4ccccc34)c3ncn(C(C)C)c3n2)c1 = 87.7

Now let's try a different one.
Looking up CCc1c2c(nc3ccc(O)cc13)-c1cc3c(c(=O)n1C2)COC(=O)[C@]3(O)CC + Cc1cncc(-c2nc(NCCc3c[nH]c4ccccc34)c3ncn(C(C)C)c3n2)c1 , I found its viability, T/C recorded as 41.5

----------
Tested on: SW1271 complex spheroids with HUVEC/MSC, growth, % test/control
Assay: Anticancer human tumor SW1271 cell line growth inhibition [AhR];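 note: spheroids exposed to agents for 7 days before readout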
Conditions: second compound 1 µM; first compound 0.316 µM; stronger effect = lower value
// map viability, T/C onto a label; ranges class A = under 80%, class B = from 80% up to 90%, class C = 90% and over

O=C(c1cc(Cc2n[nH]c(=O)c3ccccc23)ccc1F)N1CCN(C(=O)C2CC2)CC1 + CC(CO)NC(=O)c1cc(-c2ccc(Cl)cc2)nn(-c2cnn(C)c2)c1=O = class B
COc1cc(Nc2ncc3c(n2)-c2ccc(Cl)cc2C(c2c(F)cccc2OC)=NC3)ccc1C(=O)O + Cc1ccccc1N=Nc1ccc(NC(=O)c2ccnn2C)c(C)c1 = class A
COc1cc(C2c3cc4c(cc3C(OC3OC5COC(C)OC5C(O)C3O)C3COC(=O)C23)OCO4)cc(OC)c1O (centres undefined) + Cc1ccccc1N=Nc1ccc(NC(=O)c2ccnn2C)c(C)c1 = class A
Nc1ccccc1NC(=O)c1ccc(CNC(=O)OCc2cccnc2)cc1 + CC(CO)NC(=O)c1cc(-c2ccc(Cl)cc2)nn(-c2cnn(C)c2)c1=O = class A
Nc1ccn(C2OC(CO)C(O)C2(F)F)c(=O)n1 (centres undefined) + Cc1cncc(-c2nc(NCCc3c[nH]c4ccccc34)c3ncn(C(C)C)c3n2)c1 = class B
NS(=O)(=O)OCC1CC(n2ccc3c(NC4CCc5ccccc54)ncnc32)CC1O (centres undefined) + Cc1ccccc1N=Nc1ccc(NC(=O)c2ccnn2C)c(C)c1 = class C

Q. Input NS(=O)(=O)OCC1CC(n2ccc3c(NC4CCc5ccccc54)ncnc32)CC1O (centres undefined) + CC(CO)NC(=O)c1cc(-c2ccc(Cl)cc2)nn(-c2cnn(C)c2)c1=O ; output its category
A. class C
